Listed molecules paired with reported EC50
Target desc: horseradish peroxidase (HRP) tagged delF508-CFTR (Homo sapiens, UniProt P13569, DEL508-508)
Construct: expressed in transfected cells
Sequence (P13569 with tags, fused parts or gaps DEL508-508): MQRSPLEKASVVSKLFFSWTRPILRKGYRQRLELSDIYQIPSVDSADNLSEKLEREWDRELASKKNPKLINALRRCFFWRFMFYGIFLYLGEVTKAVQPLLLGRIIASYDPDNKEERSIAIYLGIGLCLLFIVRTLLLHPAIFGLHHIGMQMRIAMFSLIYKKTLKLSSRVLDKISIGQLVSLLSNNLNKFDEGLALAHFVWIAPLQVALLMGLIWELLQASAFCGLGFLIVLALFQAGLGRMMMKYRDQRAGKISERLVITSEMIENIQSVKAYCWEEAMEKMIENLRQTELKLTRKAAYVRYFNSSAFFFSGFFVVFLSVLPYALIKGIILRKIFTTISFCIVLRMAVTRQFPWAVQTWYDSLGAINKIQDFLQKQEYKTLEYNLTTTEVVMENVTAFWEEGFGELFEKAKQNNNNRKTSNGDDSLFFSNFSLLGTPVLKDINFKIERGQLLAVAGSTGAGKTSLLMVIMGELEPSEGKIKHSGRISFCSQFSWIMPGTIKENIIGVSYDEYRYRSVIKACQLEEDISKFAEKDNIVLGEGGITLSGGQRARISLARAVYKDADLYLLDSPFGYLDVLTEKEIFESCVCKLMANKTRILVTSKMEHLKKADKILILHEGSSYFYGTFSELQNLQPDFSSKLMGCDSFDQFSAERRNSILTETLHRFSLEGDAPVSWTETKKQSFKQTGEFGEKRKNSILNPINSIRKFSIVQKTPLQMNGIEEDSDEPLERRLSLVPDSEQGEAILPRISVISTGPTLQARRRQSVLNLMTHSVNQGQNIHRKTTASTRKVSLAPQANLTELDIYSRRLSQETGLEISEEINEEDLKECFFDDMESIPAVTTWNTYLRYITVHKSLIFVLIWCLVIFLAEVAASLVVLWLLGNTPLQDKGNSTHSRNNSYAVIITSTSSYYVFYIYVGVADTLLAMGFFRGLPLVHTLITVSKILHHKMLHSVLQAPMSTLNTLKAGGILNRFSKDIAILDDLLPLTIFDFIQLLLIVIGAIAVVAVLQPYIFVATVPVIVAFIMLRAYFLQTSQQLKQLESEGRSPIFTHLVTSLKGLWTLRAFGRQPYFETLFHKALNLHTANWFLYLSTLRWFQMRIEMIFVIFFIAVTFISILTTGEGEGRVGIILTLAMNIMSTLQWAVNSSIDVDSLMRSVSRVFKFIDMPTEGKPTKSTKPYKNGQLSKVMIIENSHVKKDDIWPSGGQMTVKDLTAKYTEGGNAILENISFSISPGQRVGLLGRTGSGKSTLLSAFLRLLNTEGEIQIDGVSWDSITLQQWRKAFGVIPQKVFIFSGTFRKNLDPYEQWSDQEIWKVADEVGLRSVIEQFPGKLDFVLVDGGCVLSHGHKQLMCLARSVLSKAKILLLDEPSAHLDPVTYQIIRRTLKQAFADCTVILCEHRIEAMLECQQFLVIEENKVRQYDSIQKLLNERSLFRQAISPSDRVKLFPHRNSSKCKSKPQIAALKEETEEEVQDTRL
Assay procedure: Measurement of delF508-CFTR-HRP surface expression in CFBE41o- cells
Type: cell-based
Setup conditions: delF508-CFTR-HRP surface expression, CFBE41o- cells; read-out: DelF508-CFTR-HRP EC50
Where a name gives a salt, the structure may show the parent alone.
Readout kind: EC50 (µM)

>  <Molecule>
Cc1ccccc1-c1nc(NS(=O)(=O)c2cccc(N[C@@H]3CCCNC3)n2)ccc1C(F)(F)F [Example 104, Hydrochloride]

>  <Value reported>
2.14

$$$$
>  <Molecule>
Cc1cccc(C)c1-c1nc(NS(=O)(=O)c2cccc(N[C@H]3C[C@H](O)C3)n2)ccc1Cl [Example 287]

>  <Value reported>
1.41

$$$$
>  <Molecule>
Nc1cccc(S(=O)(=O)Nc2ccc(Cl)c(-c3cc(F)ccc3C3CC3)n2)n1 [Example 21]

>  <Value reported>
1.36

$$$$
>  <Molecule>
Cc1ccccc1-c1nc(NS(=O)(=O)c2cccc(N3CCN[C@@H](CO)C3)n2)ccc1C(F)(F)F [Example 165, hydrochloride]

>  <Value reported>
2.9

$$$$

---

Target desc: delF508-CFTR (Homo sapiens, UniProt P13569, DEL508-508)
Construct: functional activity of the CFTR channel (Chloride ion transport) in patient derived primary human bronchial epithelial cells; host or cells: patient-derived primary human bronchial epithelial cells (delF508-CFTR)
Sequence (P13569 with tags, fused parts or gaps DEL508-508): as above
Assay procedure: Measurement of delF508-CFTR functional activity in primary human bronchial epithelial cells (HBECs) using Multi-Transepithelial Clamp Circuit (MTECC-24) assay
Assay type: cell-based
Setup conditions: primary CF HBECs; test compound added 24h before assay plus potentiator; relative to reference combination (2 μM corrector + 0.5 μM potentiator)
Where a name gives a salt, the structure may show the parent alone.
Readout kind: MTECC24 CFHBEC- Amax %

>  <Compound>
Cc1cccc(C)c1-c1nc(NS(=O)(=O)c2cccnc2N)ccc1Cl

>  <Readout kind>
MTECC24 CFHBEC- Amax %

>  <Value reported>
67.3%

$$$$
>  <Compound>
Cc1cccc(C)c1-c1nc(NS(=O)(=O)c2cccc(N[C@H]3C[C@@](C)(O)C3)n2)ccc1Cl

>  <Readout kind>
MTECC24 CFHBEC- Amax %

>  <Value reported>
74.1%

$$$$
>  <Compound>
Cc1c(F)cccc1-c1nc(NS(=O)(=O)c2cccc(N3CCN(C(C)(C)C)CC3)n2)ccc1C(F)(F)F

>  <Readout kind>
MTECC24 CFHBEC- Amax %

>  <Value reported>
63.7%

$$$$
>  <Compound>
Cc1cccc(C)c1-c1cc(Cl)cc(NS(=O)(=O)c2cccc(N)n2)n1

>  <Readout kind>
MTECC24 CFHBEC- Amax %

>  <Value reported>
87.0%

$$$$
>  <Compound>
Cc1ccc(F)cc1-c1nc(NS(=O)(=O)c2cccc(N3CCC(O)C3C(=O)O)n2)ccc1C(F)(F)F (stereo not drawn)

>  <Readout kind>
MTECC24 CFHBEC- Amax %

>  <Value reported>
60.9%

$$$$
>  <Compound>
Cc1ccc(F)cc1-c1nc(NS(=O)(=O)c2ccnc(N3CCOC[C@H]3C)c2)ccc1C(F)(F)F

>  <Readout kind>
MTECC24 CFHBEC- Amax %

>  <Value reported>
49.1%

$$$$
>  <Compound>
Cc1ccccc1-c1nc(NS(=O)(=O)c2cccc(N3CC(O)C3)n2)ccc1C(F)(F)F

>  <Readout kind>
MTECC24 CFHBEC- Amax %

>  <Value reported>
85.3%

$$$$
>  <Compound>
COC(=O)C1CCN(c2cccc(S(=O)(=O)Nc3ccc(Cl)c(-c4c(C)cccc4C)n3)n2)CC1

>  <Readout kind>
MTECC24 CFHBEC- Amax %

>  <Value reported>
56.3%

$$$$
>  <Compound>
Cc1ccc(F)cc1-c1nc(NS(=O)(=O)c2cccc(N3CCNCC3)n2)ccc1C(F)(F)F [Example 152, Hydrochloride]

>  <Readout kind>
MTECC24 CFHBEC- Amax %

>  <Value reported>
62.5%

$$$$
>  <Compound>
CCOC(=O)C1(C)CCN(c2cccc(S(=O)(=O)Nc3ccc(C(F)(F)F)c(-c4ccccc4C)n3)n2)CC1

>  <Readout kind>
MTECC24 CFHBEC- Amax %

>  <Value reported>
66.7%

$$$$
>  <Compound>
Cc1c(F)cccc1-c1nc(NS(=O)(=O)c2ccnc(N3CC(O)C3)c2)ccc1Cl

>  <Readout kind>
MTECC24 CFHBEC- Amax %

>  <Value reported>
67.7%

$$$$
>  <Compound>
Cc1ccc(C#N)cc1-c1nc(NS(=O)(=O)c2cccc(N3CCNCC3)n2)ccc1Cl

>  <Readout kind>
MTECC24 CFHBEC- Amax %

>  <Value reported>
49.8%

$$$$
>  <Compound>
Cc1ccc(F)cc1-c1nc(NS(=O)(=O)c2cccc(N3CCC[C@H](C(=O)O)C3)n2)ccc1C(F)(F)F

>  <Readout kind>
MTECC24 CFHBEC- Amax %

>  <Value reported>
86.7%

$$$$
>  <Compound>
Cc1cc(F)ccc1-c1nc(NS(=O)(=O)c2cccc(N3CC(O)C3)n2)ccc1C(F)(F)F

>  <Readout kind>
MTECC24 CFHBEC- Amax %

>  <Value reported>
59.5%

$$$$
>  <Compound>
O=S(=O)(Nc1ccc(C(F)(F)F)c(-c2ccccc2Cl)n1)c1cccc(N2CC(O)C2)n1

>  <Readout kind>
MTECC24 CFHBEC- Amax %

>  <Value reported>
61.1%

$$$$

Every entry's value here was drawn from patent US11066369B2.
